These data points were gathered from the OPERA property sets (Mansouri et al. 2018).

Catalogue of logP readings, one per entry.
The response must contain the number and no unit.

Use the examples below as a reference point.
O=C(O)c1cc(I)ccc1O ... 3.34
Cc1ccc(C(=O)C(C)CN2CCCCC2)cc1 (stereo unspecified) ... 3.65
CCNC(=O)NCCCCn1nc(-c2ccccc2)ccc1=O ... 1.83
CSc1ncnc2c1ncn2[C@@H]1O[C@H](CO)[C@@H](O)[C@H]1O ... 0.09
Nc1cccc(S(=O)(=O)[O-])c1.[Na+] ... -3.4
Cc1ccc(C)c(Oc2cccc(C(=O)NC(C)(C)C)c2)c1 ... 4.78
CCOC(=O)c1cnc2n(c1=O)C(C)CCC2 (stereo unspecified) ... 0.62
O=P(OCC(Br)CBr)(OCC(Br)CBr)OCC(Br)CBr (stereo unspecified) ... 4.29

The value of logP measured for the compound CCCCC(=O)OC1C(CO)OC(n2cnc3c(OC)ncnc32)C1OC(=O)CCCC (stereo unspecified) turned out to be 3.83

====

Below, each entry is listed with its recorded logP.
Give a plain numeric answer without units written out.

Some solved cases for reference:
O=c1c2ccccc2nc2n1CCCCC2 ... 2
Cc1c(O)c(=O)ccn1C ... -0.77
O=C(OCC1OC(n2cc(I)c(=O)[nH]c2=O)CC1O)c1ccc([N+](=O)[O-])cc1 (centres undefined) ... 1.24
CN(C)C(=O)n1cc(F)c(=O)[nH]c1=O ... -0.37

Entry `CC(=O)O.CCCCCCCCCCCCNC(=N)N` ; logP = 1.15

Value of measured logP for the entry `CCOP(=O)(O)Cc1ccc(S(C)(=O)=O)cc1` : -0.4

Entry CCCCC(=O)OCC1OC(n2cc(F)c(=O)[nH]c2=O)CC1OC(=O)CCCC (centres undefined) ; logP = 2.72

Item: `COc1ccc(C(=O)CCCC(=O)O)cc1` | logP: 1.63

Looking up `Cc1ncc([N+](=O)[O-])n1CCOC(N)=O` , I see its logP listed as -0.29

// field: logP; key: CC(CF)NCC(O)COc1cccc2[nH]c3ccccc3c12 (centres undefined) ; value = 2.81

Record summary for `CCCn1ccc(=O)c(O)c1CC` : reported logP = 0.7

Entry `Cn1c([N+](=O)[O-])cnc1COC(N)=O` , logP reported as -0.38

Value of logP reported for the molecule `COC(=O)c1ccccc1O` is 2.55

logP measured on `Cc1nc(N)sc1C(=O)CCN1CCCCC1` = 2.13

====

observable: logP
Enter a number only.

Solved cases (5 shown):
CC(=O)NCc1ccc(OCC(O)CNC(C)C)cc1 (stereo not drawn) ... 0.32
CCN1CCc2nc(N)oc2CC1 ... 0.05
O=C(O)Cc1ccc(O)c(O)c1 ... 0.98
CC(C)(C)C(COc1ccc(F)cc1)OC(=O)n1ccnc1 (stereo not drawn) ... 3.68
Cc1ccc(C(=O)CCN2CCCCC2)c(C)c1 ... 3.71

Entry `CCCCN(C)C(=O)c1cccc(Oc2ccccc2)c1` — recorded logP = 3.89

Consider `CC1=NS(=O)(=O)c2cc(S(N)(=O)=O)c(Cl)cc2N1` . Its measured logP is 0.03

So for `CCC(CC)COC(N)=O` , the logged logP turned out to be 1.98

// logP lookup, compound = CC(=O)CC(c1ccc([N+](=O)[O-])cc1)c1c(O)c2ccccc2oc1=O (stereo not drawn) , result: 1.98

logP reported for this compound `CCC(=O)OCOC(=O)c1cn(CC)c2nc(C)ccc2c1=O` : 1.7

Record `COC(=O)c1c(C)[nH]c(-c2cccc(Cl)n2)c1C(=O)OC` . Reported logP: 2.65

Sample `CCOP(=O)(OCC)Oc1ccc([N+](=O)[O-])cc1` ; logP observed: 1.98

Entry under test: CCC(C(=O)OCCc1ccccc1)C(CO)Cc1cncn1C (stereo not drawn) . Its logP was 2.31
